# Tested on: paw of rats
# protocol_text: Anti-inflammatory test: carrageenan-induced rat paw swelling (plethysmography), oral
# Type: in vivo
# test_context: oral route one hour before carrageenan injection, swelling determined 4 hours after injection, versus control group, dose not given
experimental_endpoint: % inhibition of acute oedema

COc1cccc(N2C(c3ccccc3Cl)=NS(=O)(=O)c3cnccc32)c1
40%
O=S1(=O)N=C(c2ccc(Cl)cc2)N(c2cc(Cl)cc(Cl)c2)c2ccncc21
57%
O=S1(=O)N=C(c2ccccc2)N(c2cccc(C(F)(F)F)c2)c2ccncc21
53.6%
CCc1cccc(N2C(c3ccc(Cl)cc3)=NS(=O)(=O)c3cnccc32)c1
60%
